# system under test: Kif5b-RET fusion protein in HEK-293 cells (Homo sapiens, UniProt P07949)
# Sequence (P07949 29-1114 limits assumed): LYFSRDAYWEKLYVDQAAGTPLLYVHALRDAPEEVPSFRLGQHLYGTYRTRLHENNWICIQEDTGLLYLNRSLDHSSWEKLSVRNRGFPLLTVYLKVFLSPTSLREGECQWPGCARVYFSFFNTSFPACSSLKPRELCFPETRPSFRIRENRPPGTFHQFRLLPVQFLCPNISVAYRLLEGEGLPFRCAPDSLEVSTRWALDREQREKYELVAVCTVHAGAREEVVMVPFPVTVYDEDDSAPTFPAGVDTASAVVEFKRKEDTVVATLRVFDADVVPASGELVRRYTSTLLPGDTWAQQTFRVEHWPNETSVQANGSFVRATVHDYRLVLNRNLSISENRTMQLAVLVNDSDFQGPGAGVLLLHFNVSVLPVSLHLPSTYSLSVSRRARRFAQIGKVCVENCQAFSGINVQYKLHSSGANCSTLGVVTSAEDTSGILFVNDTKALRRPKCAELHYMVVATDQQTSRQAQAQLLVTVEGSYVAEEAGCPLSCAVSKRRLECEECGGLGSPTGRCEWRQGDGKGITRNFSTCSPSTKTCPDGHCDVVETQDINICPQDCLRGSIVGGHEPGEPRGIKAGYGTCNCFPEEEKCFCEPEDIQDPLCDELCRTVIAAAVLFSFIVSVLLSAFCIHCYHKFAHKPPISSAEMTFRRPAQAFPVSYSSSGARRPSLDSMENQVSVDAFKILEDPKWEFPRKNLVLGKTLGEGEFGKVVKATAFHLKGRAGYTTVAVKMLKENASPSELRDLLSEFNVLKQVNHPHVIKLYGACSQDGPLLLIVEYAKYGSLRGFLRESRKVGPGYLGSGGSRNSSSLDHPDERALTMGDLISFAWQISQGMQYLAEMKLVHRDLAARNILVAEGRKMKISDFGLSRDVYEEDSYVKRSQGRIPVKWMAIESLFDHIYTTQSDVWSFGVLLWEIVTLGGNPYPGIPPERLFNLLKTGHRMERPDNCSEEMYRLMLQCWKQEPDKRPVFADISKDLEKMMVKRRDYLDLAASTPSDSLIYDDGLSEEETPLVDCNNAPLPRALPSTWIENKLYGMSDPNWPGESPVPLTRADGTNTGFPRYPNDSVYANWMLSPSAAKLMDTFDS
# assay procedure: cell-based
# condition description: HEK-293 cells expressing Kif5b-RET, phospho-RET(Tyr1062); read-out: KIF5B-RET pTYR1062 Cell IC50
pIC50: −log10 of the molar value. Counter-ions that a name gives are not always drawn.
Please use True whenever pIC50 is not below 8, and False whenever it is.

[
  {
    "compound": "Cn1cc(-c2cc(-c3ccc(N4CCC(NC(=O)C(C)(C)O)CC4)nc3)c3c(C#N)cnn3c2)cn1",
    "system under test": "Kif5b-RET fusion protein in HEK-293 cells (Homo sapiens, UniProt P07949)",
    "label class": "False"
  },
  {
    "compound": "Cn1cc(-c2cc(-c3ccc(N4CCN(C(=O)OC(C)(C)C)CC4)nc3)c3c(C#N)cnn3c2)cn1",
    "system under test": "Kif5b-RET fusion protein in HEK-293 cells (Homo sapiens, UniProt P07949)",
    "label class": "False"
  },
  {
    "compound": "CN(C)CC(=O)N1CCN(c2ccc(-c3cc(-c4cnn(C)c4)cn4ncc(Cl)c34)cn2)CC1",
    "system under test": "Kif5b-RET fusion protein in HEK-293 cells (Homo sapiens, UniProt P07949)",
    "label class": "False"
  },
  {
    "compound": "Cn1cc(-c2cc(-c3ccc(N4CCN(CC(O)C(C)(C)C)CC4)nc3)c3c(C#N)cnn3c2)cn1 (centres unmarked)",
    "system under test": "Kif5b-RET fusion protein in HEK-293 cells (Homo sapiens, UniProt P07949)",
    "label class": "False"
  },
  {
    "compound": "CC(C)C[C@H](O)C(=O)N1CCN(c2ccc(-c3cc(-c4cnn(C)c4)cn4ncc(C#N)c34)cn2)CC1",
    "system under test": "Kif5b-RET fusion protein in HEK-293 cells (Homo sapiens, UniProt P07949)",
    "label class": "False"
  },
  {
    "compound": "Cn1cc(-c2cc(-c3ccc(N4CCC(C)(N)CC4)nc3)c3c(C#N)cnn3c2)cn1 [Example 202, dihydrochloride]",
    "system under test": "Kif5b-RET fusion protein in HEK-293 cells (Homo sapiens, UniProt P07949)",
    "label class": "False"
  },
  {
    "compound": "CN1CCN(c2ccc(-c3cc(-c4cnn(C)c4)cn4ncc(Cl)c34)cn2)CC1",
    "system under test": "Kif5b-RET fusion protein in HEK-293 cells (Homo sapiens, UniProt P07949)",
    "label class": "False"
  },
  {
    "compound": "C[C@H](O)C(=O)NC1CCN(c2ccc(-c3cc(-c4cnn(C)c4)cn4ncc(C#N)c34)cn2)CC1",
    "system under test": "Kif5b-RET fusion protein in HEK-293 cells (Homo sapiens, UniProt P07949)",
    "label class": "False"
  },
  {
    "compound": "CN(C)CCCC(=O)N1CCN(c2ccc(-c3cc(-c4cnn(C)c4)cn4ncc(C#N)c34)cn2)CC1 [Example 52, trifluoroacetate]",
    "system under test": "Kif5b-RET fusion protein in HEK-293 cells (Homo sapiens, UniProt P07949)",
    "label class": "False"
  },
  {
    "compound": "CC(C)OCCNC(=O)C1CCN(c2ccc(-c3cc(-c4cnn(C)c4)cn4ncc(C#N)c34)cn2)CC1",
    "system under test": "Kif5b-RET fusion protein in HEK-293 cells (Homo sapiens, UniProt P07949)",
    "label class": "False"
  },
  {
    "compound": "Cn1cc(-c2cc(-c3ccc(N4CCN(C(=O)CC(C)(C)C)CC4)nc3)c3c(Cl)cnn3c2)cn1",
    "system under test": "Kif5b-RET fusion protein in HEK-293 cells (Homo sapiens, UniProt P07949)",
    "label class": "False"
  },
  {
    "compound": "Cn1cc(-c2cc(-c3ccc(N4CCN(C(=O)C(C)(F)F)CC4)nc3)c3c(C#N)cnn3c2)cn1",
    "system under test": "Kif5b-RET fusion protein in HEK-293 cells (Homo sapiens, UniProt P07949)",
    "label class": "False"
  },
  {
    "compound": "Cn1cc(-c2cc(-c3ccc(N4CCN(C(=O)[C@H](O)C(F)(F)F)CC4)nc3)c3c(C#N)cnn3c2)cn1",
    "system under test": "Kif5b-RET fusion protein in HEK-293 cells (Homo sapiens, UniProt P07949)",
    "label class": "True"
  },
  {
    "compound": "CC(=O)N1CCN(c2ccc(-c3cc(-c4cnn(C)c4)cn4ncc(Cl)c34)cn2)CC1",
    "system under test": "Kif5b-RET fusion protein in HEK-293 cells (Homo sapiens, UniProt P07949)",
    "label class": "False"
  },
  {
    "compound": "COC(CNC(=O)C1CCN(c2ccc(-c3cc(-c4cnn(C)c4)cn4ncc(C#N)c34)cn2)CC1)C(F)(F)F (centres unmarked)",
    "system under test": "Kif5b-RET fusion protein in HEK-293 cells (Homo sapiens, UniProt P07949)",
    "label class": "True"
  },
  {
    "compound": "CN(C)C(=O)CN1CCN(c2ccc(-c3cc(-c4cnn(C)c4)cn4ncc(C#N)c34)cn2)CC1 [Example 143, 2,2,2-trifluoroacetate]",
    "system under test": "Kif5b-RET fusion protein in HEK-293 cells (Homo sapiens, UniProt P07949)",
    "label class": "False"
  },
  {
    "compound": "CCC1(C(=O)NC(C)C)CCN(c2ccc(-c3cc(-c4cnn(C)c4)cn4ncc(C#N)c34)cn2)CC1",
    "system under test": "Kif5b-RET fusion protein in HEK-293 cells (Homo sapiens, UniProt P07949)",
    "label class": "True"
  },
  {
    "compound": "C[C@H](NC(=O)C1CCN(c2ccc(-c3cc(-c4cnn(C)c4)cn4ncc(C#N)c34)cn2)CC1)C(F)(F)F",
    "system under test": "Kif5b-RET fusion protein in HEK-293 cells (Homo sapiens, UniProt P07949)",
    "label class": "True"
  },
  {
    "compound": "CC(C)[C@H](O)C(=O)N1CCN(c2ccc(-c3cc(-c4cnn(C)c4)cn4ncc(C#N)c34)cn2)CC1",
    "system under test": "Kif5b-RET fusion protein in HEK-293 cells (Homo sapiens, UniProt P07949)",
    "label class": "False"
  }
]

----------
# system under test: N-terminal GST tagged recombinant human RET cytoplasmic domain (aa 658-end), wild type RET kinase (Homo sapiens (Human), UniProt P07949)
# assay procedure: RET Enzyme Assay (HTRF KinEASE-TK), wild type RET
# Type: biochemical
# condition description: wild type RET, 1 mM ATP
quantity name: IC50 (nM)

[
  {
    "molecule": "CC(C)OCCN1CCN(c2ccc(-c3cc(-c4cnn(C)c4)cn4ncc(C#N)c34)cn2)CC1",
    "quantity name": "IC50",
    "readout number": 8.5
  },
  {
    "molecule": "COc1ccc(CN2CCN(c3ccc(-c4cc(-c5cnn(CCS(=O)(=O)C(C)C)c5)cn5ncc(C#N)c45)cn3)CC2)cn1",
    "quantity name": "IC50",
    "readout number": 16.4
  },
  {
    "molecule": "COC(=O)C1(C)CCN(c2ccc(-c3cc(-c4cnn(C)c4)cn4ncc(C#N)c34)cn2)CC1",
    "quantity name": "IC50",
    "readout number": 9.2
  },
  {
    "molecule": "CC(C)CC(=O)N1CCN(c2ccc(-c3cc(-c4cnn(C(F)F)c4)cn4ncc(C#N)c34)cn2)CC1",
    "quantity name": "IC50",
    "readout number": 11
  },
  {
    "molecule": "COCCCN1CCN(c2ccc(-c3cc(-c4cnn(C)c4)cn4ncc(C#N)c34)cn2)CC1",
    "quantity name": "IC50",
    "readout number": 30.8
  },
  {
    "molecule": "COC[C@H](O)CN1CCN(c2ccc(-c3cc(-c4cnn(C)c4)cn4ncc(C#N)c34)cn2)CC1",
    "quantity name": "IC50",
    "readout number": 44
  },
  {
    "molecule": "CC[C@H](CO)NC(=O)N1CCN(c2ccc(-c3cc(-c4cnn(C)c4)cn4ncc(C#N)c34)cn2)CC1",
    "quantity name": "IC50",
    "readout number": 6.3
  }
]

----------
Item-by-item account of pIC50
# system under test: N-terminal GST tagged recombinant human RET cytoplasmic domain (aa 658-end), wild type RET kinase (Homo sapiens (Human), UniProt P07949)
# assay procedure: RET Enzyme Assay (HTRF KinEASE-TK), wild type RET
# Format: biochemical
# condition description: wild type RET, 1 mM ATP
pIC50: −log10 of the molar value.
quantity name: pIC50

[
  {
    "compound": "Cc1cnn2cc(-c3cnn(C)c3)cc(-c3ccc(N4CCN(Cc5ccccc5)CC4)nc3)c12 [Example 653]",
    "quantity name": "pIC50",
    "readout number": 7.06
  },
  {
    "compound": "CCc1nn(C)cc1-c1cc(-c2ccc(N3CCN(Cc4ccccc4)CC3)nc2)c2c(C#N)cnn2c1 [Example 610]",
    "quantity name": "pIC50",
    "readout number": 7.32
  },
  {
    "compound": "Cn1cc(-c2cc(-c3ccc(N4CCN(C(=O)C(C)(F)F)CC4)nc3)c3c(C#N)cnn3c2)cn1 [Example 59]",
    "quantity name": "pIC50",
    "readout number": 7.79
  },
  {
    "compound": "CCCC(=O)N1CCN(c2ccc(-c3cc(-c4cnn(C)c4)cn4ncc(C#N)c34)cn2)CC1 [Example 70]",
    "quantity name": "pIC50",
    "readout number": 8.08
  },
  {
    "compound": "CC(C)(C)OC(=O)N1CCN(c2ccc(-c3cc(-c4cnn(C(F)F)c4)cn4ncc(C#N)c34)cn2)CC1 [Example 265]",
    "quantity name": "pIC50",
    "readout number": 6.81
  },
  {
    "compound": "CC(C)n1cc(-c2cc(-c3ccc(N4CCN(Cc5ccccc5)CC4)nc3)c3c(C#N)cnn3c2)cn1 [Example 611]",
    "quantity name": "pIC50",
    "readout number": 7.92
  },
  {
    "compound": "C[C@@H](O)CC(=O)N1CCN(c2ccc(-c3cc(-c4cnn(C)c4)cn4ncc(C#N)c34)cn2)CC1 [Example 55]",
    "quantity name": "pIC50",
    "readout number": 7.98
  },
  {
    "compound": "CC(C)C(=O)N[C@H]1CCCN(c2ccc(-c3cc(-c4cnn(C)c4)cn4ncc(C#N)c34)cn2)C1 [Example 225]",
    "quantity name": "pIC50",
    "readout number": 6.98
  },
  {
    "compound": "Cn1cc(-c2cc(-c3ccc(N4CCC(S(=O)(=O)O)CC4)nc3)c3c(C#N)cnn3c2)cn1 [Example 568]",
    "quantity name": "pIC50",
    "readout number": 8.21
  },
  {
    "compound": "CC(=O)N1CCN(c2ccc(-c3cc(-c4cnn(C)c4)cn4ncc(Cl)c34)cn2)CC1 [Example 330]",
    "quantity name": "pIC50",
    "readout number": 7.42
  },
  {
    "compound": "CCc1nn(CC)cc1-c1cc(-c2ccc(N3CCN(Cc4ccccc4)CC3)nc2)c2c(C#N)cnn2c1 [Example 615]",
    "quantity name": "pIC50",
    "readout number": 7.22
  },
  {
    "compound": "COc1ccc(CN2CCN(c3ccc(-c4cc(-c5cnn(C)c5)cn5ncc(C#N)c45)cn3)CC2)nc1 [Example 458]",
    "quantity name": "pIC50",
    "readout number": 8.16
  },
  {
    "compound": "COc1cccc(CN2CCN(c3ccc(-c4cc(-c5cn[nH]c5)cn5ncc(C#N)c45)cn3)CC2)n1 [Example 699]",
    "quantity name": "pIC50",
    "readout number": 7.71
  },
  {
    "compound": "Cn1cc(-c2cc(-c3ccc(N4CCN(CCOC(C)(C)C)CC4)nc3)c3c(C#N)cnn3c2)cn1 [Example 420]",
    "quantity name": "pIC50",
    "readout number": 7.96
  },
  {
    "compound": "Cc1cnn2cc(-c3cnn(C)c3)cc(-c3ccc(N4CCN(Cc5ccccn5)CC4)nc3)c12 [Example 654]",
    "quantity name": "pIC50",
    "readout number": 7.15
  }
]
